- ASSAY DETAILS: JC-1 mitochondrial signal, unstimulated MM1S myeloma – cell-based, JC-1 fluorescence, 24 h, 100 nL compound, profiling panel (AID 1170); further: test concentration not given here
- CONDITION INFO: MM1S mitochondrial potential, higher = more signal
z-score values for the compounds below.
// keep it numeric: no unit symbol after the value

Some solved cases for reference:
| COMPOUND | MEASURED METRIC | OBS VALUE |
| --- | --- | --- |
| COc1ccc(C(O)C2C=CC3C(=O)N(c4ccccc4)C(=O)C3N2Nc2ccccc2)c2ccccc12 (stereo not drawn) | z-score | -0.978 |
| [N-]=[N+]=NCc1ccccc1C[C@]1(C(=O)NCCN2CCOCC2)N=C(c2ccc(OCCCO)cc2)O[C@H]1c1ccccc1CN=[N+]=[N-] | z-score | -1.65 |
| Cc1ccccc1/C=C/C=O | z-score | -0.962 |
| O[C@@H](Cc1ccccc1)[C@@H](/C=C/c1ccccc1)NCc1ccccc1Br | z-score | -1.8 |
| O=C1OCCC=C[C@H]2OC34C=CCN(c5ccc6ccccc6c5)C(=O)[C@H]3N(CCCCCCO)C(=O)[C@@H]4C12 (stereo partly drawn) | z-score | -0.456 |
| CN1C(=O)C2C=CC(C(O)C(c3ccccc3)c3ccccc3)N(Nc3ccccc3)C2C1=O (stereo not drawn) | z-score | -0.179 |
| CC(C)(C)OC(=O)CC[C@@]1(C(=O)N2CCOCC2)N=C(c2ccc(OCCCO)cc2)O[C@@H]1c1ccccc1N=[N+]=[N-] | z-score | -1.03 |

Next item in the queue.
Request: Return the recorded z-score value; entry: O=C1c2ccccc2[C@](Cc2ccccc2I)(C(=O)O)[C@H](c2ccc(CO)cc2)N1Cc1ccccc1C(F)(F)F
Result: -0.478
